Sourced from ChEMBL document CHEMBL4414623

- Assay method text: Half life in human HepG2 cells at 0.52 uM by LC-MS/MS analysis
- Format: ADME, cell-based
Property name: half-life at 0.52 µM (min)
Unit min implied. Number only.

In one line, give reported half-life at 0.52 µM of the entry CC/C=C\C[C@H](O)\C=C/C=C/C=C/[C@H](O)C/C=C\C/C=C\CCC(=O)O .
30

====

- Assay method text: Half life in human HepG2 cells at 13 uM by LC-MS/MS analysis
- Assay type: ADME, cell-based
Property name: half-life at 13 µM

# return recorded half-life at 13 µM for entry CC/C=C\C[C@H](O)\C=C/C=C/C=C/[C@H](O)C/C=C\C/C=C\CCC(=O)O
> 4 h

====

- Assay method text: Half life in human HepG2 cells at 2.6 uM by LC-MS/MS analysis
- Format: ADME, cell-based
Property name: half-life at 2.6 µM

For CC/C=C\C[C@H](O)\C=C/C=C/C=C/[C@H](O)C/C=C\C/C=C\CCC(=O)O , write its half-life at 2.6 µM.
1 h
